# TEST_PARAMETERS: in n-butanol, 283.15 K
ASSAY_ENDPOINT: solubility (mole fraction)

INSERT INTO results (mol, numeric_result) VALUES
  ('Nc1cc([N+](=O)[O-])ccc1Cl', 0.0086);

---

# TEST_PARAMETERS: in 2-butanone, 313.15 K
ASSAY_ENDPOINT: solubility (mole fraction)

INSERT INTO assay_data (mol, assay_endpoint, numeric_result) VALUES
  ('Nc1cc([N+](=O)[O-])ccc1Cl', 'solubility (mole fraction)', 0.179);

---

# TEST_PARAMETERS: in n-butanol, 303.15 K
ASSAY_ENDPOINT: solubility (mole fraction)

INSERT INTO measurements (mol, assay_endpoint, numeric_result) VALUES
  ('Nc1cc([N+](=O)[O-])ccc1Cl', 'solubility (mole fraction)', 0.0182);

From: BigSolDB 2.1
